Target: hSTING(H232) (Homo sapiens, UniProt Q86WV6)
Sequence (Q86WV6 whole entry): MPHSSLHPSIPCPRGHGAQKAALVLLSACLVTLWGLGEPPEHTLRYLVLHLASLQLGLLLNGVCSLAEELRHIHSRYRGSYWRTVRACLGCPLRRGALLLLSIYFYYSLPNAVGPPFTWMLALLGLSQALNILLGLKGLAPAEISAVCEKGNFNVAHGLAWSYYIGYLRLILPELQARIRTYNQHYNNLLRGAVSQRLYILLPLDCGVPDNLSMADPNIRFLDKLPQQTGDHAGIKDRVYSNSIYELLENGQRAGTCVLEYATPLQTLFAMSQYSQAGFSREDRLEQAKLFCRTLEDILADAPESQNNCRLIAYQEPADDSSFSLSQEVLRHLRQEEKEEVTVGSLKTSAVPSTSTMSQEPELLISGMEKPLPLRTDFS
Assay: Luciferase reporter assay in HEK293T-hSTING-Luciferase cells, H232/REF polymorph
Details: H232/REF polymorph of human STING, EC50 range class
pEC50: −log10 of the molar value. Counter-ions that a name gives are not always drawn.
For each of the molecules below, state its pEC50.

Requested field: pEC50. Item: Cc1cc(CN2C(=O)N(C)C(C)c3ccc(C(=O)NCc4c(F)cc(F)cc4F)cc32)ccn1 (centres unmarked)
> 6.00

Data request, read-out pEC50, for C[C@H]1c2ccc(C(=O)NCc3c(F)cc(F)cc3F)cc2N(Cc2c(F)ccc(OCCO)c2Cl)C(=O)N1C
> 6.00

Recorded pEC50 of COc1cccc(F)c1CN1C(=O)N(C)C(C)c2ccc(C(=O)NCc3c(F)cc(F)cc3F)cc21 (centres unmarked) [Example 154] , please.
> 6.00

What does the data say about its pEC50? Entry: C[C@H]1c2ccc(C(=O)NCc3c(F)cc(F)cc3F)cc2N(Cc2c(F)cc(O)cc2Cl)C(=O)N1C
> 6.00

Request the reported pEC50 associated with C[C@H]1c2ccc(C(=O)NCc3c(F)cc(F)cc3F)cc2N(Cc2c(F)cccc2NCCO)C(=O)N1C [Example 264, hydrochloride]
> 6.00

Data request, read-out pEC50, for CC1c2ccc(C(=O)NCc3c(F)cc(F)cc3F)cc2N(Cc2c(F)cccc2Br)C(=O)N1C (centres unmarked)
> 6.00

Suppose we examine the molecule C[C@H]1c2ccc(C(=O)NCc3c(F)cc(F)cc3F)cc2N(Cc2c(F)cc(O)cc2F)C(=O)N1C ; what pEC50 value has been reported?
> 6.00

Suppose we examine the molecule C[C@H]1c2ccc(C(=O)NCc3c(F)cc(F)cc3F)cc2N(Cc2c(F)cc(OCCO)cc2F)C(=O)N1C ; what pEC50 value has been reported?
> 6.00

Would you mind telling me what pEC50 value was observed for Cc1cccc(F)c1CN1C(=O)N(C)C(C)c2ccc(C(=O)NCc3c(F)cc(F)cc3F)cc21 (centres unmarked) [Example 162] ?
> 6.00

Item C[C@H]1c2ccc(C(=O)NCc3c(F)cc(F)cc3F)cc2N(Cc2ncccc2F)C(=O)N1C has what recorded pEC50?
5.00 to 6.00

Could you tell me which pEC50 is on file for C[C@H]1c2ccc(C(=O)NCc3c(F)cc(F)cc3F)cc2N(Cc2c(F)cc(OCCNS(C)(=O)=O)cc2F)C(=O)N1C ?
> 6.00

What value of measured pEC50 is listed for CC1c2ccc(C(=O)NCc3c(F)cc(F)cc3F)cc2N(Cc2c(F)cccc2F)C(=O)N1C (centres unmarked) ?
> 6.00

May I ask what pEC50 has been recorded for CC1c2ncc(C(=O)NCc3c(F)cc(F)cc3F)cc2N(Cc2c(F)cccc2Cl)C(=O)N1C (centres unmarked) ?
> 6.00

Can you share its pEC50? I mean this molecule: C[C@H]1c2ccc(C(=O)NCc3c(F)cc(F)cc3F)cc2N(Cc2c(F)ccc(OCCCO)c2F)C(=O)N1C
> 6.00

Requested read-out: pEC50. Entry: Cc1ncc(CN2C(=O)N(C)Cc3ccc(C(=O)NCc4c(F)cc(F)cc4F)cc32)s1
5.00 to 6.00

For the molecule shown here, Cc1cccc(F)c1CN1C(=O)N(C)C(C)c2ccc(C(=O)NCc3c(F)cc(F)cc3F)cc21 (centres unmarked) [Example 203] , give the reported pEC50.
> 6.00

Item under review: CNc1cccc(F)c1CN1C(=O)N(C)C(C)c2ccc(C(=O)NCc3c(F)cc(F)cc3F)cc21 (centres unmarked) . Reported pEC50?
> 6.00

For the molecule C[C@H]1c2ccc(C(=O)NCc3c(F)cc(F)cc3F)cc2N(Cc2c(O)ccc(F)c2F)C(=O)N1C , what pEC50 is on record?
> 6.00

So what does the record say about pEC50 for C[C@H]1c2ccc(C(=O)NCc3c(F)cc(F)cc3F)cc2N(Cc2c(F)ccc(C(N)=O)c2F)C(=O)N1C ?
> 6.00

Please give the measured pEC50 for this molecule: Cc1cccc(-c2nc(CN3C(=O)N(C)Cc4ccc(C(=O)NCc5c(F)cc(F)cc5F)cc43)c(C)o2)c1
5.00 to 6.00

What value of pEC50 has been recorded for this entry: Cc1cc(CN2C(=O)N(C)Cc3ccc(C(=O)NCc4c(F)cc(F)cc4F)cc32)on1
5.00 to 6.00

So what's the measured pEC50 for this one? C[C@H]1c2ccc(C(=O)NCc3c(F)cc(F)cc3F)cc2N(Cc2c(Cl)ccc(F)c2F)C(=O)N1C
> 6.00

If you can, please state the reported pEC50 value of C[C@H]1c2ccc(C(=O)NCc3c(F)cc(F)cc3F)cc2N(Cc2c(F)cc(OC[C@@H](O)CO)cc2F)C(=O)N1C .
> 6.00

Endpoint output: pEC50 of C[C@H]1c2ccc(C(=O)NCc3c(F)cc(F)cc3F)cc2N(Cc2c(F)cncc2Br)C(=O)N1C . Value?
> 6.00

Could you tell me which pEC50 is on file for CC1c2ccc(C(=O)NCc3c(F)cc(F)cc3F)cc2N(Cc2c(F)cccc2OS(C)(=O)=O)C(=O)N1C (centres unmarked) ?
5.00 to 6.00

For C[C@H]1c2ccc(C(=O)NCc3c(F)cc(F)cc3F)cc2N(Cc2c(F)ccc(OCCCO)c2Cl)C(=O)N1C , what is its reported pEC50?
> 6.00

Sample CC1c2ccc(C(=O)NCc3cc4ccccc4o3)cc2N(Cc2c(F)cccc2Cl)C(=O)N1C (centres unmarked) — what was its pEC50?
5.00 to 6.00

Fill blank: measured pEC50 of the molecule CN1Cc2ccc(C(=O)NCc3c(F)cc(F)cc3F)cc2N(Cc2c(F)cccc2C#N)C1=O is ____.
< 5.00

Name the reported pEC50 value associated with the molecule Cc1ccc(F)c(CN2C(=O)N(C)C(C)c3ccc(C(=O)NCc4c(F)cc(F)cc4F)cc32)n1 (centres unmarked)
5.00 to 6.00

Where do these numbers come from? They come from patent US11571423B2.
